tested on: SR; test: Antileukemic activity against human SR cells assessed as inhibition of tumor growth after 24 hrs; type: functional, cell-based
Reported metric: IC50 (nM)
Express it in nM; write the number only.

IC50 for Cc1ccc(/C=C2/CN(C(=O)CC(=O)N3C/C(=C\c4ccc(C)cc4)C(=O)/C(=C/c4ccc(C)cc4)C3)C/C(=C\c3ccc(C)cc3)C2=O)cc1 is 50

IC50 for O=C1/C(=C\c2ccc(O)cc2)CN(C(=O)CC(=O)N2C/C(=C\c3ccc(O)cc3)C(=O)/C(=C/c3ccc(O)cc3)C2)C/C1=C\c1ccc(O)cc1 is 460

IC50 for N[C@@H](Cc1ccc(N(CCCl)CCCl)cc1)C(=O)O is 3240

IC50 for O=C1/C(=C\c2ccccc2)CN(C(=O)CC(=O)N2C/C(=C\c3ccccc3)C(=O)/C(=C/c3ccccc3)C2)C/C1=C\c1ccccc1 is 30

IC50 for O=C1/C(=C/c2ccc(F)cc2)CN(C(=O)C(=O)N2C/C(=C\c3ccc(F)cc3)C(=O)/C(=C/c3ccc(F)cc3)C2)C/C1=C\c1ccc(F)cc1 is 160

###

experiment: Cytotoxicity against human NALM6 cells assessed as dead cells at 1 uM after 24 hrs; format: functional, NALM-6
So I've got a bunch of compounds here, and I need their Activity values.
Express it in %; write the number only.

Activity for COc1cc(/C=C2\CN(C(=O)C(=O)N3C/C(=C\c4cc(OC)c(OC)c(OC)c4)C(=O)/C(=C/c4cc(OC)c(OC)c(OC)c4)C3)C/C(=C\c3cc(OC)c(OC)c(OC)c3)C2=O)cc(OC)c1OC is 67.6

Activity for COc1ccc(/C=C2\CN(C(=O)C(=O)N3C/C(=C\c4ccc(OC)cc4)C(=O)/C(=C/c4ccc(OC)cc4)C3)C/C(=C\c3ccc(OC)cc3)C2=O)cc1 is 62.6

Activity for Cc1ccc(/C=C2/CN(C(=O)CC(=O)N3C/C(=C\c4ccc(C)cc4)C(=O)/C(=C/c4ccc(C)cc4)C3)C/C(=C\c3ccc(C)cc3)C2=O)cc1 is 67.6

Activity for O=C1/C(=C\c2ccc(Cl)cc2)CN(C(=O)CC(=O)N2C/C(=C\c3ccc(Cl)cc3)C(=O)/C(=C/c3ccc(Cl)cc3)C2)C/C1=C\c1ccc(Cl)cc1 is 68.6

Activity for O=C1/C(=C\c2ccc(F)cc2)CN(C(=O)CC(=O)N2C/C(=C\c3ccc(F)cc3)C(=O)/C(=C/c3ccc(F)cc3)C2)C/C1=C\c1ccc(F)cc1 is 51.9

Activity for COc1ccc(/C=C2/CN(C(=O)CC(=O)N3C/C(=C\c4ccc(OC)c(OC)c4)C(=O)/C(=C/c4ccc(OC)c(OC)c4)C3)C/C(=C\c3ccc(OC)c(OC)c3)C2=O)cc1OC is 63.9

Activity for O=C1/C(=C\c2ccccc2)CN(CCCN2C/C(=C\c3ccccc3)C(=O)/C(=C/c3ccccc3)C2)C/C1=C\c1ccccc1 is 49.2

Activity for O=C1/C(=C/c2ccc(Cl)cc2)CN(C(=O)C(=O)N2C/C(=C\c3ccc(Cl)cc3)C(=O)/C(=C/c3ccc(Cl)cc3)C2)C/C1=C\c1ccc(Cl)cc1 is 59

Activity for O=C1/C(=C/c2ccc(F)cc2)CN(C(=O)C(=O)N2C/C(=C\c3ccc(F)cc3)C(=O)/C(=C/c3ccc(F)cc3)C2)C/C1=C\c1ccc(F)cc1 is 61.6

Activity for Cc1ccc(/C=C2\CN(C(=O)C(=O)N3C/C(=C\c4ccc(C)cc4)C(=O)/C(=C/c4ccc(C)cc4)C3)C/C(=C\c3ccc(C)cc3)C2=O)cc1 is 59.5

Activity for COc1ccc(/C=C2\CN(C(=O)C(=O)N3C/C(=C\c4ccc(OC)c(OC)c4)C(=O)/C(=C/c4ccc(OC)c(OC)c4)C3)C/C(=C\c3ccc(OC)c(OC)c3)C2=O)cc1OC is 60.7
